settings: buffer; pH 7.4; 200.0 µM

- Structure as smiles: "COc1ccc(C(=O)O)c(OC)n1"
  Comparative sign: ">"
  solubility kinetic, µg/mL: 27.5
- Structure as smiles: "COc1ccc(CNC(=S)NCc2ccc(F)cc2)cc1"
  Comparative sign: "="
  solubility kinetic, µg/mL: 9.5
- Structure as smiles: "Cn1c(=O)n(C)c2cc(S(=O)(=O)NCC(=O)O)ccc21"
  Comparative sign: ">"
  solubility kinetic, µg/mL: 44.9
- Structure as smiles: "Cc1cccc(NC(=O)CCN2CCC(C(N)=O)CC2)c1"
  Comparative sign: "="
  solubility kinetic, µg/mL: 41.1
- Structure as smiles: "COCCC(=O)Nc1ccc2c(c1)CN(C(=O)CCOC)CC2"
  Comparative sign: ">"
  solubility kinetic, µg/mL: 48.1
- Structure as smiles: "O=C(COC(=O)c1ccccc1)NC(=O)NC1CCCC1"
  Comparative sign: "="
  solubility kinetic, µg/mL: 23.8

###

Entries annotated with measured solubility kinetic
conditions: buffer; pH 7.4; 200.0 µM
Measured endpoint: solubility kinetic (mg/mL)

- Compound: "Cn1cnnc1SCC(=O)Nc1ccccc1Oc1ccccc1"
  Comparative sign: ">"
  Measurement: 0.0511
- Compound: "O=c1c2cc(NC(=S)NC3CC3)ccc2nc2n1CCCCC2"
  Comparative sign: "="
  Measurement: 0.0347
- Compound: "CC(=O)Nc1ccc(N/C=C/C(=O)c2ccc(C)cc2)cc1"
  Comparative sign: "="
  Measurement: 0.0032
- Compound: "O=C(NCC1CCCO1)c1cc(C(=O)C2CCCCC2)c[nH]1 (stereo unspecified)"
  Comparative sign: ">"
  Measurement: 0.0457
- Compound: "COc1ccc(OC)c(NC(=S)Nc2ccccc2)c1"
  Comparative sign: ">"
  Measurement: 0.0433
- Compound: "O=C(NC(=O)c1ccccc1)Nc1cccc(S(=O)(=O)N2CCCCC2)c1"
  Comparative sign: "="
  Measurement: 0.0022

###

settings: buffer; pH 7.4; 200.0 µM
Entries annotated with measured solubility kinetic

- Molecule: "Cc1ccc(SC(C)C(=O)O/N=C(\\N)c2ccncc2)cc1 (stereo not given)"
  Comparative sign: ">"
  solubility kinetic / µg/mL: 47.3
- Molecule: "Cc1ccc2oc(C(=O)N(C)Cc3ccon3)c(C)c2c1"
  Comparative sign: "="
  solubility kinetic / µg/mL: 39.2
- Molecule: "Cc1cccc(OCC(=O)Nc2nccs2)c1C"
  Comparative sign: "="
  solubility kinetic / µg/mL: 5.1
- Molecule: "CCN1CCN(C(=O)c2ccc(C(F)(F)F)cc2)CC1"
  Comparative sign: "="
  solubility kinetic / µg/mL: 40.6
- Molecule: "O=C(NCc1csc(-c2ccccc2)n1)c1cc(F)cc2c1OCOC2"
  Comparative sign: "="
  solubility kinetic / µg/mL: 5.7
- Molecule: "COc1ccccc1CN(C)C(=O)COC(=O)c1cc(C)oc1C"
  Comparative sign: ">"
  solubility kinetic / µg/mL: 49.7
- Molecule: "COc1ccc(NC(=O)c2ccc([N+](=O)[O-])o2)cc1"
  Comparative sign: "="
  solubility kinetic / µg/mL: 23.4
- Molecule: "CCOC(=O)c1cnc(SC)nc1NCCOC"
  Comparative sign: ">"
  solubility kinetic / µg/mL: 40.7
- Molecule: "CC(C(=O)N1CCN(c2ccccc2F)CC1)c1ccc([N+](=O)[O-])cc1 (stereo not given)"
  Comparative sign: "="
  solubility kinetic / µg/mL: 38.8
- Molecule: "O=C1Nc2ccccc2C1=Nc1ccc(F)cc1"
  Comparative sign: ">"
  solubility kinetic / µg/mL: 36
- Molecule: "COc1cc2c(cc1OC)CN(C(=O)Cn1ccccc1=O)CC2"
  Comparative sign: ">"
  solubility kinetic / µg/mL: 49.3
- Molecule: "OC(COc1ccc(Cl)cc1)CSc1ccccn1 (stereo not given)"
  Comparative sign: "="
  solubility kinetic / µg/mL: 37.5
- Molecule: "O=C(c1ccc(F)cc1)C1CCN(C(=O)c2ccccc2)CC1"
  Comparative sign: ">"
  solubility kinetic / µg/mL: 46.7
- Molecule: "Cc1ccc(C(=O)N2CC(=O)NC(=O)C2)cc1"
  Comparative sign: "="
  solubility kinetic / µg/mL: 29.6
- Molecule: "CCOc1ccc(N2C(=O)CC(Cc3ccccc3OC)C2=O)cc1 (stereo not given)"
  Comparative sign: "="
  solubility kinetic / µg/mL: 4.9
- Molecule: "CS(=O)(=O)Nc1ccc(-c2cn3cccnc3n2)cc1"
  Comparative sign: ">"
  solubility kinetic / µg/mL: 43.2
- Molecule: "COc1ccc(-c2csc(NC(=O)CN3C(=O)CCC3=O)n2)cc1"
  Comparative sign: "="
  solubility kinetic / µg/mL: 11.7
- Molecule: "Cc1c(C(=O)Nc2nccs2)oc2ccc(F)cc12"
  Comparative sign: "="
  solubility kinetic / µg/mL: 3.1
- Molecule: "COc1ccc(CCC(C)NC2CCCCCCC2)cc1 (stereo not given)"
  Comparative sign: "="
  solubility kinetic / µg/mL: 41.8
- Molecule: "Cc1ccc(Oc2ccccc2NC(=O)C2=COCCO2)cc1"
  Comparative sign: "="
  solubility kinetic / µg/mL: 15.8
- Molecule: "COc1ccc(N=CC2=C(O)CC(C)(C)CC2=O)cc1OC"
  Comparative sign: ">"
  solubility kinetic / µg/mL: 45.5
- Molecule: "Cc1ccc(-n2nc(C(=O)O)cc2-c2ccccc2Cl)cc1"
  Comparative sign: ">"
  solubility kinetic / µg/mL: 46.9
- Molecule: "Cc1cc(SCC(=O)NC2CCCCC2)nc2ccccc12"
  Comparative sign: "="
  solubility kinetic / µg/mL: 1.2
- Molecule: "COc1cccc(C(C)NC(=O)C2CCCC2)c1 (stereo not given)"
  Comparative sign: ">"
  solubility kinetic / µg/mL: 37.1
- Molecule: "COc1ccccc1NC(=O)CN(Cc1ccco1)C(=O)c1ccc(N2CCCC2=O)cc1"
  Comparative sign: "="
  solubility kinetic / µg/mL: 64.9

These data points were gathered from PubChem BioAssay AID1996.
